- target.entity: full-length wt-BTK enzyme (Homo sapiens (Human), UniProt Q06187)
- Sequence (Q06187 whole entry): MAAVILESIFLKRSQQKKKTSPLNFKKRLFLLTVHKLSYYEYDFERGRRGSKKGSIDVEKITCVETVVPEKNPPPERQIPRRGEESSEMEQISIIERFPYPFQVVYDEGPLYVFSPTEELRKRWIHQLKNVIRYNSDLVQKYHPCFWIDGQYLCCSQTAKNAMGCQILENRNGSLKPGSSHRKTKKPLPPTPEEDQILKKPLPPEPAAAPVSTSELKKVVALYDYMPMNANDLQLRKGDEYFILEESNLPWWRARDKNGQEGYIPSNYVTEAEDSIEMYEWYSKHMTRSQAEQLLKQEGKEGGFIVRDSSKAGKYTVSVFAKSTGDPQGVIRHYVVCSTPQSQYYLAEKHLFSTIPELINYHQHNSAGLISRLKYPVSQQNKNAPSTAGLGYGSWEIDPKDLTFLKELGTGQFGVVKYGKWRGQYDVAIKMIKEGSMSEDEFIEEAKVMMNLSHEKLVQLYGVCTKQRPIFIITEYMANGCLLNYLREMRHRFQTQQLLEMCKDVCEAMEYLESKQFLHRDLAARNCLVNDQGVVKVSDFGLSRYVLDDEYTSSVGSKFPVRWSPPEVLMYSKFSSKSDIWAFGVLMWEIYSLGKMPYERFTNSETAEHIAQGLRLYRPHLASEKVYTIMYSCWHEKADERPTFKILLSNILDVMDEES
- test.method.notes: Biochemical kinase assay wt-BTK (IMAP)
# key: entry, value: IC50

[
  {
    "compound": "Nc1ncc2c3c1c(-c1ccc(C(=O)Nc4cc(C(F)(F)F)ccn4)cc1)nn3[C@@H]1CCC[C@H](C1)NC(=O)CCCCC/C=C/C2 [Example 101a]",
    "target.entity": "full-length wt-BTK enzyme (Homo sapiens (Human), UniProt Q06187)",
    "IC50": "5 to 50 nM"
  },
  {
    "compound": "Nc1ncc2c3c1c(-c1ccc(C(=O)Nc4cc(C(F)(F)F)ccn4)cc1)nn3[C@@H]1CCC[C@H](C1)NC(=O)CCCC[C@H](O)/C=C/2",
    "target.entity": "full-length wt-BTK enzyme (Homo sapiens (Human), UniProt Q06187)",
    "IC50": "< 5 nM"
  },
  {
    "compound": "N#Cc1ccnc(NC(=O)c2ccc(-c3nn4c5c(cnc(N)c35)/C=C/COCCC(=O)N[C@@H]3CCC[C@@H]4C3)cc2)c1",
    "target.entity": "full-length wt-BTK enzyme (Homo sapiens (Human), UniProt Q06187)",
    "IC50": "< 5 nM"
  }
]

# lookup: IC50 of COc1ccnc(NC(=O)c2ccc(-c3nc4n5c(cnc(N)c35)/C=C/CCOCCC(=O)N[C@@H]3CC[C@@H]4C3)cc2)c1
< 5 nM

# lookup: IC50 of Nc1ncc2c3c1c(-c1ccc(C(=O)Nc4cc(C(F)(F)F)ccn4)cc1)nn3[C@@H]1CCC[C@H](C1)NC(=O)CCCOC/C=C/2
< 5 nM

# lookup: IC50 of Nc1ncc2n3c(nc(-c4ccc(C(=O)Nc5cc(C(F)(F)F)ccn5)cc4)c13)[C@@H]1CCC[C@H](C1)NC(=O)CC/C=C/C2
5 to 50 nM

* * *

# key: entry, value: Tau (h) wt-BTK (Act)
- target.entity: wt-BTK (Homo sapiens (Human), UniProt Q06187)
- Sequence (Q06187 whole entry): as the sequence (Q06187 whole entry) above
- test.method.notes: Binding kinetics measurements (Surface Plasmon Resonance) on wt-BTK
- run.conditions: target residence time, SPR
Please give a number only; it is taken to be in h.

Consider the reported Tau (h) wt-BTK (Act) for these compounds:
[
  {
    "item.smiles": "CN1C/C=C/c2cnc(N)c3c(-c4ccc(C(=O)Nc5cc(C(F)(F)F)ccn5)cc4)nn(c23)[C@@H]2CCC[C@H](C2)NC(=O)CCCC1",
    "measurement.label": "Tau (h) wt-BTK (Act)",
    "value.reported": 2.79
  },
  {
    "item.smiles": "C[C@@H]1CCn2nc(-c3ccc(C(=O)Nc4cc(C(F)(F)F)ccn4)cc3)c3c(N)ncc(c32)/C=C/CO[C@H](C)C(=O)N1",
    "measurement.label": "Tau (h) wt-BTK (Act)",
    "value.reported": 2.14
  },
  {
    "item.smiles": "N#Cc1ccnc(NC(=O)c2ccc(-c3nn4c5c(cnc(N)c35)/C=C/CCOCCC(=O)N[C@@H]3CCC[C@@H]4C3)cc2)c1",
    "measurement.label": "Tau (h) wt-BTK (Act)",
    "value.reported": 9.97
  },
  {
    "item.smiles": "Nc1ncc2c3c1c(-c1ccc(C(=O)Nc4cc(C(F)(F)F)ccn4)cc1)nn3[C@@H]1CCC[C@H](C1)C(=O)NCCCCC/C=C/2",
    "measurement.label": "Tau (h) wt-BTK (Act)",
    "value.reported": 4.47
  },
  {
    "item.smiles": "C[C@@H]1CC(=O)N[C@@H]2CC[C@H](C2)n2nc(-c3ccc(C(=O)Nc4cc(C#N)ccn4)cc3)c3c(N)ncc(c32)/C=C/CCN1",
    "measurement.label": "Tau (h) wt-BTK (Act)",
    "value.reported": 2.95
  }
]

Value wanted: Tau (h) wt-BTK (Act) (wt-BTK (Homo sapiens (Human), UniProt Q06187)) of entry Nc1ncc2c3c1c(-c1ccc(C(=O)Nc4cc(C(F)(F)F)ccn4)cc1)nn3[C@@H]1CC[C@H](C1)NC(=O)CCOCC/C=C/2
2.34

* * *

- target.entity: full-length BTK C481S enzyme (Homo sapiens (Human), UniProt Q06187, C481S)
- test.method.notes: Biochemical kinase assay BTK C481S (IMAP)
pIC50: −log10 of the molar value.
measurement.label: pIC50

[
  {
    "molecule": "C[C@@H]1CCn2nc(-c3ccc(C(=O)Nc4cc(C(F)(F)F)ccn4)cc3)c3c(N)ncc(c32)C/C=C/CCCC(=O)N1 [Example 109b]",
    "value.reported": "6.30 to 7.30"
  },
  {
    "molecule": "CN1C/C=C/c2cnc(N)c3c(-c4ccc(C(=O)Nc5cc(C(F)(F)F)ccn5)cc4)nn(c23)[C@@H]2CCC[C@H](C2)NC(=O)CC1",
    "value.reported": "> 8.30"
  }
]

# next molecule below
# lookup: pIC50 of C[C@@H]1CCn2nc(-c3ccc(C(=O)Nc4cc(C(F)(F)F)ccn4)cc3)c3c(N)ncc(c32)/C=C/C[S+]([O-])CC(=O)N1 (stereo partly drawn)
> 8.30

* * *

pIC50: −log10 of the molar value.
Assay read-out pIC50; system under study: UniProtKB Q06187.

Consider the reported pIC50 for these compounds:
[
  {
    "compound": "Nc1ncc2c3c1c(-c1ccc(C(=O)Nc4cc(C(F)(F)F)ccn4)cc1)nn3[C@@H]1CCC[C@H](C1)C(=O)NCCC/C=C/C2 [Example 84a]",
    "measurement.label": "pIC50",
    "value.reported": "7.30 to 8.30"
  },
  {
    "compound": "C[C@@H]1CC(=O)N[C@@H]2CCC[C@H](C2)n2nc(-c3ccc(C(=O)Nc4cc(C#N)ccn4)cc3)c3c(N)ncc(c32)/C=C/CCO1",
    "measurement.label": "pIC50",
    "value.reported": "> 8.30"
  },
  {
    "compound": "Nc1ncc2c3c1c(-c1ccc(C(=O)Nc4ccccn4)cc1)nn3[C@@H]1CCC[C@H](C1)NC(=O)COC/C=C/C2 [Example 104a]",
    "measurement.label": "pIC50",
    "value.reported": "6.30 to 7.30"
  }
]

# lookup: pIC50 of C[C@@H]1CC(=O)N[C@@H]2CC[C@H](C2)c2nc(-c3ccc(C(=O)Nc4cc(C#N)ccn4)cc3)c3c(N)ncc(n23)/C=C/CCN1
> 8.30

# lookup: pIC50 of CN1CC/C=C/c2cnc(N)c3c(-c4ccc(C(=O)Nc5cc(C(F)(F)F)ccn5)cc4)nn(c23)[C@@H]2CCC[C@H](C2)C(=O)NCC1
> 8.30

# lookup: pIC50 of Nc1ncc2n3c(nc(-c4ccc(C(=O)Nc5cc(C(F)(F)F)ccn5)cc4)c13)[C@@H]1CCC[C@H](C1)NC(=O)CCC/C=C/C2 [Example 133a]
7.30 to 8.30

* * *

- target.entity: BTK C481S (Homo sapiens (Human), UniProt Q06187, C481S)
- Sequence (Q06187 whole entry C481S): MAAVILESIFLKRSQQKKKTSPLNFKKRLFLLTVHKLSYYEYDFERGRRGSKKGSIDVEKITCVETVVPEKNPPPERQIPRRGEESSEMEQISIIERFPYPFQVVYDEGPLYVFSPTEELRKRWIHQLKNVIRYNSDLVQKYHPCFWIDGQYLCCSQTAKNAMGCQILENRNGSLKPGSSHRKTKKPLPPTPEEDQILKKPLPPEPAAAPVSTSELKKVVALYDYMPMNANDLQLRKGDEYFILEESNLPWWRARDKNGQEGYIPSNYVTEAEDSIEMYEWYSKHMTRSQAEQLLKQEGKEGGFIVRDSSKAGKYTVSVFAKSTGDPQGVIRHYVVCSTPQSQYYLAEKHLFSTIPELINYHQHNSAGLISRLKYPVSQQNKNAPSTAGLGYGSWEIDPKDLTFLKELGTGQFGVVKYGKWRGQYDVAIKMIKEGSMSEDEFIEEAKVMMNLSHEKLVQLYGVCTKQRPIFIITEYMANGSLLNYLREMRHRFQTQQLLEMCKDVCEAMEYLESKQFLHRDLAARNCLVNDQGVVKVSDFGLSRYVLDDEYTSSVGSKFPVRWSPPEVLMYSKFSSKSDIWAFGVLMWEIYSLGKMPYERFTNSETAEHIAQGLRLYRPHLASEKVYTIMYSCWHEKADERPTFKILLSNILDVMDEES
- test.method.notes: Binding kinetics measurements (Surface Plasmon Resonance) on BTK C481S
- run.conditions: target residence time for BTK C481S, SPR
Entries whose Tau (h) BTK C418S (Act) is below 6 h take fulfilled; entries at or above 6 h take not fulfilled.

[
  {
    "compound": "CN1C/C=C/c2cnc(N)c3c(-c4ccc(C(=O)Nc5cc(C(F)(F)F)ccn5)cc4)nn(c23)[C@@H]2CCC[C@H](C2)NC(=O)C1",
    "label": "fulfilled"
  },
  {
    "compound": "C[C@@H]1CC(=O)N[C@@H]2CCC[C@H](C2)n2nc(-c3ccc(C(=O)Nc4cc(C#N)ccn4)cc3)c3c(N)ncc(c32)/C=C/CCO1",
    "label": "not fulfilled"
  },
  {
    "compound": "Nc1ncc2c3c1c(-c1ccc(C(=O)Nc4ccccn4)cc1)nn3[C@@H]1CCC[C@H](C1)C(=O)NCCCCC/C=C\\C2 [Example 88b]",
    "label": "fulfilled"
  },
  {
    "compound": "Nc1ncc2n3c(nc(-c4ccc(C(=O)Nc5cc(C(F)(F)F)ccn5)cc4)c13)[C@@H]1CCC[C@H](C1)NC(=O)CCC/C=C/2",
    "label": "fulfilled"
  }
]

Input N#Cc1ccnc(NC(=O)c2ccc(-c3nn4c5c(cnc(N)c35)/C=C/CCN3CC[C@H]3C(=O)N[C@@H]3CCC[C@@H]4C3)cc2)c1 ; condition: Tau (h) BTK C418S (Act) strictly below 6 h. Does it hold?
fulfilled

Input Nc1ncc2c3c1c(-c1ccc(C(=O)Nc4cc(C(F)(F)F)ccn4)cc1)nn3[C@@H]1CCC[C@H](C1)NC(=O)CCNC/C=C/2 ; condition: Tau (h) BTK C418S (Act) strictly below 6 h. Does it hold?
not fulfilled

Input Nc1ncc2c3c1c(-c1ccc(C(=O)Nc4cc(C(F)(F)F)ccn4)cc1)nn3[C@@H]1CCC[C@H](C1)C(=O)NCCCCCCC2 ; condition: Tau (h) BTK C418S (Act) strictly below 6 h. Does it hold?
not fulfilled

Input Nc1ncc2c3c1c(-c1ccc(C(=O)Nc4cc(C(F)(F)F)ccn4)cc1)nn3[C@@H]1CCC[C@H](C1)C(=O)NCCCCC/C=C\C2 [Example 89b] ; condition: Tau (h) BTK C418S (Act) strictly below 6 h. Does it hold?
not fulfilled

Input C[C@@H]1CCn2nc(-c3ccc(C(=O)Nc4cc(C(F)(F)F)ccn4)cc3)c3c(N)ncc(c32)/C=C/CCN2CC[C@H]2C(=O)N1 ; condition: Tau (h) BTK C418S (Act) strictly below 6 h. Does it hold?
fulfilled

Input Nc1ncc2c3c1c(-c1ccc(C(=O)Nc4cc(C(F)(F)F)ccn4)cc1)nn3[C@@H]1CCC[C@H](C1)NC(=O)CCCC/C=C/2 ; condition: Tau (h) BTK C418S (Act) strictly below 6 h. Does it hold?
fulfilled

Input Nc1ncc2c3c1c(-c1ccc(C(=O)Nc4cc(C(F)(F)F)ccn4)cc1)nn3[C@@H]1CCC[C@H](C1)NC(=O)CCCCC/C=C/2 ; condition: Tau (h) BTK C418S (Act) strictly below 6 h. Does it hold?
not fulfilled

Input N#Cc1ccnc(NC(=O)c2ccc(-c3nn4c5c(cnc(N)c35)/C=C/CCOCCC(=O)N[C@@H]3CCC[C@@H]4C3)cc2)c1 ; condition: Tau (h) BTK C418S (Act) strictly below 6 h. Does it hold?
fulfilled

Reference source: patent US20250074911A1
